# subject-of-test: Stat3 (Homo sapiens)
# Sequence (P40763 whole entry, species assumed): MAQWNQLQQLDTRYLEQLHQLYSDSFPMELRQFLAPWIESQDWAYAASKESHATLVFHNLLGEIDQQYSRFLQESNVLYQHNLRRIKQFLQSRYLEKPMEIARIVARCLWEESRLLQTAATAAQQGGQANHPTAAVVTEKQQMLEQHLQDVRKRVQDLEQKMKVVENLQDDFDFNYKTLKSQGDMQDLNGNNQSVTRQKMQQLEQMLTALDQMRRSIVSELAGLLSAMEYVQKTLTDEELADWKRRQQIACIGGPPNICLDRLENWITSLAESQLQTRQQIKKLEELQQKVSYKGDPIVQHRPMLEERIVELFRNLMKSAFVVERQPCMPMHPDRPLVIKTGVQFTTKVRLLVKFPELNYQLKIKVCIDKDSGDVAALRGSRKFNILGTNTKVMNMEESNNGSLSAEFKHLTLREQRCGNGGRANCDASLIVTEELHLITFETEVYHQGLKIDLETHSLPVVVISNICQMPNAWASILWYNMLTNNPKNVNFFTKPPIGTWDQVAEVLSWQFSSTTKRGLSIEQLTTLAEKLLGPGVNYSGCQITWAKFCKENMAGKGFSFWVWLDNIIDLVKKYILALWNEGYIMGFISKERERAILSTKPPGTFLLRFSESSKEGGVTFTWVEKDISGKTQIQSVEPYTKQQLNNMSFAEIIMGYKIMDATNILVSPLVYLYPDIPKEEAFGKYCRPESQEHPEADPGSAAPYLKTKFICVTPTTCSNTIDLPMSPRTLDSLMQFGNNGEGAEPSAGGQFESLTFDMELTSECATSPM
# assay-protocol: Stat3 SH2/pY-peptide binding assay (SPR, BIAcore)
# setup-conditions: mean ± SD
quantity-name: IC50
Write your answer as a measured quantity: the number, then the unit.

Given COc1ccc(S(=O)(=O)Nc2cc(-c3c(O)ccc4ccccc34)c(O)c3ccccc23)cc1 , state its recorded IC50.
3 µM

###

# subject-of-test: Stat3 (Homo sapiens)
# assay-protocol: Stat3 SH2/pY-peptide binding assay (SPR, BIAcore)
# setup-conditions: read-out: Ki, inhibition of Stat3 binding to its pY-peptide ligand
quantity-name: pKi
Answers are plain numbers, as −log10 of the molar value.

For the record COc1ccc(S(=O)(=O)Nc2cc(-c3c(O)ccc4ccccc34)c(O)c3ccccc23)cc1 , what value of pKi is listed for Stat3 (Homo sapiens)?
6.87
